We begin with a simple list: items and their reported HepG2 cytotoxicity 12pt dose response: Maximum inhibition (%).
System: HepG2-A16-CD81 hepatocytes
PROCEDURE DETAILS: HepG2 cytotoxicity screening (CellTiter-Glo)
RUN PARAMETERS: 12pt dose response, maximum inhibition
Enter your answer as a number in %; do not include the unit.

Worked cases, HepG2 cytotoxicity 12pt dose response: Maximum inhibition (%) given:
>  <COMPOUND>
Cc1cc(NC(=O)c2ccc(CN3CC[C@H](O)C3)cc2)ccc1F

>  <UNIT TAG>
%

>  <RESULT>
10.3

$$$$
>  <COMPOUND>
COc1cccc(-c2noc3c2CN(c2ncnc4c2CCC4)CC3)c1

>  <UNIT TAG>
%

>  <RESULT>
52

$$$$
>  <COMPOUND>
Cc1nc(C(=O)NC2CCN(CCOc3ccc(Br)cc3)CC2)cs1

>  <UNIT TAG>
%

>  <RESULT>
35.2

$$$$
>  <COMPOUND>
CCS(=O)(=O)N1CCc2ccc(NC(=O)Nc3cccc(F)c3)cc21

>  <UNIT TAG>
%

>  <RESULT>
50.2

$$$$
>  <COMPOUND>
Cc1ccc(-c2ccc(C3CNCCO3)nc2)cc1 (stereo not shown)

>  <UNIT TAG>
%

>  <RESULT>
48.6

$$$$
>  <COMPOUND>
CC(=O)Nc1ccc(-n2ccc3nc(N4CCCC4)ncc3c2=O)cc1

>  <UNIT TAG>
%

>  <RESULT>
8.78

$$$$

Ask: Given the compound Cc1cnc(NC(=O)c2csc(NC3CCCC3)n2)s1 , what is its reported HepG2 cytotoxicity 12pt dose response: Maximum inhibition (%)?
Reply: 48.7

Ask: Quick one: HepG2 cytotoxicity 12pt dose response: Maximum inhibition (%) for CCNc1ccnc(CN2CCCC2C(=O)Nc2nccs2)c1 (stereo not shown) ?
Reply: 2.09

Ask: Find the recorded HepG2 cytotoxicity 12pt dose response: Maximum inhibition (%) belonging to Nc1nc(CCC(=O)N2CCOC(CC3CCCCC3)C2)cs1 (stereo not shown) and report it.
Reply: 8.43

Ask: Give its HepG2 cytotoxicity 12pt dose response: Maximum inhibition (%) value. Item: CN(CCc1ccncc1)CCc1nccs1
Reply: -1.84
